Value source: paper doi:10.1101/2025.04.18.649542v1

- EXPERIMENTAL SYSTEM: UniProt B3SBB3
- Sequence (B3SBB3 1-336): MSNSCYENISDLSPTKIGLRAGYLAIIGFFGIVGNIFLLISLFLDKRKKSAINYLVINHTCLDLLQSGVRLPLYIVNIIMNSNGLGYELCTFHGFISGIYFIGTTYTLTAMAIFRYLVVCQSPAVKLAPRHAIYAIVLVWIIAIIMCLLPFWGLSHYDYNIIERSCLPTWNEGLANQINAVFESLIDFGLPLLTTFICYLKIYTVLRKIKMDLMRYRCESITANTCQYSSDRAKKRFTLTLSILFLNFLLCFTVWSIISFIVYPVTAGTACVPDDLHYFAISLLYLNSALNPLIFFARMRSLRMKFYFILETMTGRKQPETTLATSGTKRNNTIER
- TEST: cell-based
ASSAY READOUT: EC50 (nM)
Dear colleague, please return just the value in nM, with no unit written.

Query: Recorded EC50 of "NCCc1c[nH]c2ccccc12" , please.
Response: 30.1

====

- Tested on: Tadh165
- TEST: GFP-aequorin calcium luminescence, HEK293-G5A
- Type: cell-based, Trichoplax adhaerens
- TEST CONTEXT: agonist; Gqi9 co-expressed; HBSS, ascorbic acid
ASSAY READOUT: EC50 (nM)
Kindly provide the numeric value in nM only, without the unit symbol.

Query: // query EC50 value for entry "NCCc1ccc(O)cc1"
Response: 1170
